Each recorded value in this set is attributed to patent US8658570B2.

# System: Plutella xylostella
# protocol description: Plutella xylostella test on Savoy cabbage; drench application
# Format: in vivo
# condition context: soil, 168 h, 1 mg of ai/plant, mortality 7 days after infestation, read-out: % Activity (according to Abbott)
measured quantity: pest or weed control at 1 mg/plant (%)

[
  {
    "smiles record": "CNC(=O)c1cc(C#N)cc(C)c1NC(=O)c1cc(Cn2nnc(C(F)(F)F)n2)nn1-c1c(F)cccc1Cl",
    "measured quantity": "pest or weed control at 1 mg/plant",
    "result unit": "%",
    "endpoint value": 90
  },
  {
    "smiles record": "Cc1cc(C#N)cc(C(=O)NC(C)(C)C)c1NC(=O)c1cc(Cn2nnc(C(F)(F)F)n2)nn1-c1ncccc1F",
    "measured quantity": "pest or weed control at 1 mg/plant",
    "result unit": "%",
    "endpoint value": 100
  },
  {
    "smiles record": "Cc1cc(C#N)cc(C(=O)NC(C)(C)C)c1NC(=O)c1cc(Cn2nnc(C(F)(F)F)n2)nn1-c1ncccc1Br",
    "measured quantity": "pest or weed control at 1 mg/plant",
    "result unit": "%",
    "endpoint value": 100
  },
  {
    "smiles record": "Cc1cc(C#N)cc(C(=O)NC(C)C)c1NC(=O)c1cc(Cn2nnc(C(F)(F)F)n2)nn1-c1ncccc1Br",
    "measured quantity": "pest or weed control at 1 mg/plant",
    "result unit": "%",
    "endpoint value": 100
  }
]
